// provenance: patent US20210253718A1

target: FZD1 cysteine-rich domain (CRD), MYC-tagged and GPI-anchored on CHO cells (human); assay: flow cytometry, CHO-CRD cells;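 note: flow cytometry of Fab binding to CHO cells overexpressing a Frizzled CRD, with binding defined as median fluorescence over twice that of CHO cells lacking any Frizzled CRD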
The reader will find reported median fluorescence values listed item by item below.
Please reply with the value in numeric form only.

Fab-2919 (Fab, V domains shown, Fab) VH: EVQLVESGGGLVQPGGSLRLSCAASGFNISYSYIHWVRQAPGKGLEWVASIYSSSGSTSYADSVKGRFTISADTSKNTAYLQMNSLRAEDTAVYYCARGAIDYWGQGTLVTVSS VL: DIQMTQSPSSLSASVGDRVTITCRASQSVSSAVAWYQQKPGKAPKLLIYSASSLYSGVPSRFSGSRSGTDFTLTISSLQPEDFATYYCQQWYSSGHVLITFGQGTKVEIK ... 3.52
Fab-2911 (Fab, V domains shown, Fab; also called Fv-2911) VH: EVQLVESGGGLVQPGGSLRLSCAASGFNIYYSSMHWVRQAPGKGLEWVAYIYPYSGYTSYADSVKGRFTISADTSKNTAYLQMNSLRAEDTAVYYCARYFWWYGFDYWGQGTLVTVSS VL: DIQMTQSPSSLSASVGDRVTITCRASQSVSSAVAWYQQKPGKAPKLLIYSASSLYSGVPSRFSGSRSGTDFTLTISSLQPEDFATYYCQQGPWYPFTFGQGTKVEIK ... 38.2

Turning now to a further record.
Which value of median fluorescence has been reported for Fab-2898 (Fab, V domains shown, Fab; also called Fv-2898) VH: EVQLVESGGGLVQPGGSLRLSCAASGFNIYSYSMHWVRQAPGKGLEWVASIYSSSGSTSYADSVKGRFTISADTSKNTAYLQMNSLRAEDTAVYYCARAVWGLDYWGQGTLVTVSS VL: DIQMTQSPSSLSASVGDRVTITCRASQSVSSAVAWYQQKPGKAPKLLIYSASSLYSGVPSRFSGSRSGTDFTLTISSLQPEDFATYYCQQWWGYYSLITFGQGTKVEIK in the records?
14.9
